target: T1, ActRIIa receptor-Fc fusion (UniProt P27037 20-134, limits assumed); assay: ELISA-like plate assay, captured BMP-7 from conditioned media, receptor-Fc detection
T1 construct: BMP receptor-Fc fusion used at 5 ug/mL
T1 sequence (P27037 20-134 limits assumed): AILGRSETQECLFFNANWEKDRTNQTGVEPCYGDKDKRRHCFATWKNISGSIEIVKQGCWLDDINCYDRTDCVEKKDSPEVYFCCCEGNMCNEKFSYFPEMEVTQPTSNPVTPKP
Give ActRIIa binding (relative to wild type = 1.0) for every item shown.

Challenge: Param item = BMP-7 variant Y78T (ligand, In conditioned media; numbering on mature BMP-7) STGGKQRSQNRSKTPKNQEALRMASVAENSSSDQRQACKKHELYVSFRDLGWQDWIIAPEGYAAYYCEGECAFPLNSTMNATNHAIVQTLVHFINPETVPKPCCAPTQLNAISVLYFDDSSNVILKKYRNMVVRACGCH ; retrieve measured ActRIIa binding (relative to wild type = 1.0).
Response given: 1.63 relative to wild type

Challenge: Quick one: ActRIIa binding (relative to wild type = 1.0) for BMP-7 variant R129D (ligand, In conditioned media; numbering on mature BMP-7) STGGKQRSQNRSKTPKNQEALRMASVAENSSSDQRQACKKHELYVSFRDLGWQDWIIAPEGYAAYYCEGECAFPLNSYMNATNHAIVQTLVHFINPETVPKPCCAPTQLNAISVLYFDDSSNVILKKYDNMVVRACGCH ?
Response given: 1.13 relative to wild type

Challenge: Need ActRIIa binding (relative to wild type = 1.0) of BMP-7 variant L90P (ligand, In conditioned media; numbering on mature BMP-7) STGGKQRSQNRSKTPKNQEALRMASVAENSSSDQRQACKKHELYVSFRDLGWQDWIIAPEGYAAYYCEGECAFPLNSYMNATNHAIVQTPVHFINPETVPKPCCAPTQLNAISVLYFDDSSNVILKKYRNMVVRACGCH , thanks.
Response given: 0.75 relative to wild type

Challenge: // ActRIIa binding (relative to wild type = 1.0) lookup, key: BMP-7 variant F73N (ligand, In conditioned media; numbering on mature BMP-7) STGGKQRSQNRSKTPKNQEALRMASVAENSSSDQRQACKKHELYVSFRDLGWQDWIIAPEGYAAYYCEGECANPLNSYMNATNHAIVQTLVHFINPETVPKPCCAPTQLNAISVLYFDDSSNVILKKYRNMVVRACGCH
Response given: 0.89 relative to wild type

Challenge: Which ActRIIa binding (relative to wild type = 1.0) is listed for BMP-7 variant F117R (ligand, In conditioned media; numbering on mature BMP-7) STGGKQRSQNRSKTPKNQEALRMASVAENSSSDQRQACKKHELYVSFRDLGWQDWIIAPEGYAAYYCEGECAFPLNSYMNATNHAIVQTLVHFINPETVPKPCCAPTQLNAISVLYRDDSSNVILKKYRNMVVRACGCH ?
Response given: 0.35 relative to wild type

Challenge: For BMP-7 variant Y78H (ligand, In conditioned media; numbering on mature BMP-7) STGGKQRSQNRSKTPKNQEALRMASVAENSSSDQRQACKKHELYVSFRDLGWQDWIIAPEGYAAYYCEGECAFPLNSHMNATNHAIVQTLVHFINPETVPKPCCAPTQLNAISVLYFDDSSNVILKKYRNMVVRACGCH , what is its reported ActRIIa binding (relative to wild type = 1.0)?
Response given: 1.07 relative to wild type

Challenge: Consider the binder shown here: BMP-7 variant F73E (ligand, In conditioned media; numbering on mature BMP-7) STGGKQRSQNRSKTPKNQEALRMASVAENSSSDQRQACKKHELYVSFRDLGWQDWIIAPEGYAAYYCEGECAEPLNSYMNATNHAIVQTLVHFINPETVPKPCCAPTQLNAISVLYFDDSSNVILKKYRNMVVRACGCH What is its recorded ActRIIa binding (relative to wild type = 1.0)?
Response given: 1.87 relative to wild type
